MIC values, listed per item
test system: S. pyogenes; test: MIC determination, initial screen, S. pyogenes; assay type: cell-based; conditions: Streptococcus pyogenes, ATCC14289; Table 1; ATCC 14289 (initial screen); 24 h, A595

Known results for molecules:
[
  {
    "Molecule": "COc1cc2nc(N3CCC(Nc4ccc(C(=O)O)cc4)CC3)nc(Nc3ccc(C)cc3)c2cc1OC",
    "MIC": "> 20 µM"
  },
  {
    "Molecule": "COc1cc2nc(N3CCC(Nc4nc(N)c(C(=O)O)nc4Cl)CC3)nc(N)c2cc1OC",
    "MIC": "> 100 µM"
  },
  {
    "Molecule": "COc1cc2cnc(N3CCC(Nc4ccc(C(=O)O)cc4)CC3)nc2cc1OC",
    "MIC": "> 20 µM"
  }
]

stdin: Quickly give me recorded MIC for COc1cc2nc(N3CCC(Nc4ccc(C(=O)O)cc4[N+](=O)[O-])CC3)nc(N)c2cc1OC
stdout: > 20 µM

stdin: Tell me its MIC given COC(=O)c1ccc(NC2CCN(c3nc(N)c4cc(OC)c(OC)cc4n3)CC2)cc1 as the entry.
stdout: 5 to 25 µM
